Would you mind telling me the reported inhibition at 110 µM of each entry?
system: C. elegans; assay: microbe, parasite or virus in culture; conditions: Caenorhabditis elegans, 0 h, read-out: Percentage of motility inhibition 0 h, Table S2, C. elegans SS assay, 110 μM, 0 h, averages of 4 data points
Where a name gives a salt, the structure may show the parent alone.
Reply with a number, then the unit it belongs to.

State the recorded inhibition at 110 µM for this entry: `CC(C)=CCC/C(C)=C/CO`
0%

State the recorded inhibition at 110 µM for this entry: `CC(C)=CCC[C@H](C(=O)O)[C@H]1CC[C@]2(C)C3=C(CC[C@@]12C)[C@@]1(C)CCC(=O)C(C)(C)[C@H]1CC3`
23%

State the recorded inhibition at 110 µM for this entry: `O=C1/C(=C/c2ccc(O)c(O)c2)COc2cc(O)ccc21`
0%

State the recorded inhibition at 110 µM for this entry: `O=C1c2cccc(O)c2C(=O)c2c(O)cccc21`
21%

State the recorded inhibition at 110 µM for this entry: `CC(C)CCC[C@@H](C)[C@H]1CC[C@H]2[C@@H]3CC=C4C[C@@H](O)CC[C@]4(C)[C@H]3CC[C@]12C`
24%

State the recorded inhibition at 110 µM for this entry: O=c1c(O[C@@H]2O[C@H](CO)[C@H](O)[C@H](O)[C@H]2O)c(-c2ccc(O)c(O)c2)oc2cc(O)cc(O)c12 [Hyperoside]
14%

State the recorded inhibition at 110 µM for this entry: `Cc1ncc([N+](=O)[O-])n1C`
0%

State the recorded inhibition at 110 µM for this entry: CC1(C)S[C@@H]2[C@H](NC(=O)Cc3ccccc3)C(=O)N2[C@H]1C(=O)O [Penicillin G s odium salt]
16%

###

assay: Spheroids toxicity assay (alamarBlue); type: cell-based; settings: human, HepG2 liver spheroids, pH 7.2, CC50 HepG2 spheroids / EC50 T. circumcincta; read-out: Selective Index (SI) CC50/EC50 Sph/T. c
reported.metric: selectivity ratio at 3 d
Please reply with the value in numeric form only.

State the recorded selectivity ratio at 3 d for this entry: CCCCCCCCN=c1ccn(CCCCCCCCCCn2ccc(=NCCCCCCCC)cc2)cc1 [Octenidine, reference compound]
3.6

###

tested on: C. elegans; experiment: microbe, parasite or virus in culture; conditions: Caenorhabditis elegans, 24 h, read-out: Percentage of motility inhibition 24 h, Table S2, C. elegans SS assay, 110 μM, 24 h, averages of 4 data points
Where a name gives a salt, the structure may show the parent alone.
reported.metric: inhibition at 110 µM (%)
Enter your answer as a number in %; do not include the unit.

Form entry - test system: C. elegans; read-out: inhibition at 110 µM; compound: Cc1ncc(CO)c(CO)c1O [Pyridoxine]
0

Form entry - test system: C. elegans; read-out: inhibition at 110 µM; compound: CC(=O)OCC1=C[C@H](O)[C@@H]2C(C(=O)O)=CO[C@@H](O[C@@H]3O[C@H](CO)[C@@H](O)[C@H](O)[C@H]3O)[C@H]12 [Asperulosidic Acid]
0

Form entry - test system: C. elegans; read-out: inhibition at 110 µM; compound: CC1(C)CC[C@]2(CO)CC[C@]3(C)C(=CC[C@@H]4[C@@]5(C)CC[C@H](O)C(C)(C)[C@@H]5CC[C@]43C)[C@@H]2C1 [Erythrodiol]
68

Form entry - test system: C. elegans; read-out: inhibition at 110 µM; compound: Nc1nc2c(ncn2CCC(CO)CO)c(=O)[nH]1 [Penciclovir]
1

Form entry - test system: C. elegans; read-out: inhibition at 110 µM; compound: C=C(CC[C@@H](C(=O)O)[C@H]1[C@H](O)C[C@@]2(C)C3=CC[C@H]4C(C)(C)[C@@H](O)CC[C@]4(C)C3=CC[C@]12C)C(C)C [Dehydrotumulosic acid]
21

Form entry - test system: C. elegans; read-out: inhibition at 110 µM; compound: Cn1c(=O)c2c(ncn2CC(=O)O)n(C)c1=O [Acefylline]
1

Form entry - test system: C. elegans; read-out: inhibition at 110 µM; compound: [H]/N=C(\N/C(=N/[H])NCCCCCCNC(=N)NC(=N)Nc1ccc(Cl)cc1)Nc1ccc(Cl)cc1 [Chlorhexidine]
63

Form entry - test system: C. elegans; read-out: inhibition at 110 µM; compound: CC1(C)C=Cc2c(ccc3c2OC[C@@H](c2ccc(O)cc2O)C3)O1 [Glabridin]
6

Form entry - test system: C. elegans; read-out: inhibition at 110 µM; compound: COc1ccc(-c2oc3c(CC=C(C)C)c(O)cc(O)c3c(=O)c2O)cc1 [Icaritin]
2

Form entry - test system: C. elegans; read-out: inhibition at 110 µM; compound: CC(=O)C1C(=O)C=C(C)OC1=O (stereo not shown) [Dehydroacetic acid]
17

Form entry - test system: C. elegans; read-out: inhibition at 110 µM; compound: COc1cc2c(cc1OC)[C@H](C)NCC2 [Salsolidine]
0

Form entry - test system: C. elegans; read-out: inhibition at 110 µM; compound: CC(C)=CCC[C@](C)(O[C@@H]1O[C@H](CO)[C@@H](O)[C@H](O)[C@H]1O)[C@H]1CC[C@]2(C)[C@@H]1[C@H](O)C[C@@H]1[C@@]3(C)CC[C@H](O[C@@H]4O[C@H](CO)[C@@H](O)[C@H](O)[C@H]4O)C(C)(C)[C@@H]3CC[C@]12C [Ginsenoside F2]
45

Form entry - test system: C. elegans; read-out: inhibition at 110 µM; compound: C[C@H]1C(=O)O[C@@H]2CCN3CC=C(COC(=O)[C@](C)(O)[C@]1(C)O)[C@H]23 [Monocrotaline]
12

Form entry - test system: C. elegans; read-out: inhibition at 110 µM; compound: CC(C)C[C@H](N)C(=O)O [L-Leucine]
11

Form entry - test system: C. elegans; read-out: inhibition at 110 µM; compound: C[C@@H](O)[C@H]1C(=O)N2C(C(=O)[O-])=C(SC3Cn4cnc[n+]4C3)[C@H](C)[C@H]12 (stereo partly shown) [Biapenem]
3

Form entry - test system: C. elegans; read-out: inhibition at 110 µM; compound: CC(CC(=O)C[C@@H](C)[C@H]1CC(=O)[C@@]2(C)C3=C(C(=O)C[C@]12C)[C@@]1(C)CC[C@H](O)C(C)(C)[C@@H]1C[C@@H]3O)C(=O)O (stereo partly shown) [Ganoderic acid B]
20

Form entry - test system: C. elegans; read-out: inhibition at 110 µM; compound: COC(=O)N/N=C/c1c[n+]([O-])c2ccccc2[n+]1[O-] [Carbadox]
0

Form entry - test system: C. elegans; read-out: inhibition at 110 µM; compound: Cc1cn([C@H]2C[C@H](N=[N+]=[N-])[C@@H](CO)O2)c(=O)[nH]c1=O [Zidovudine]
4

Form entry - test system: C. elegans; read-out: inhibition at 110 µM; compound: C=CC1=C(C)c2cc3[nH]c(cc4nc(cc5[nH]c(cc1n2)c(C)c5CCC(=O)O)C(CCC(=O)O)=C4C)c(C)c3C=C [Protoporphyrin IX]
17

Form entry - test system: C. elegans; read-out: inhibition at 110 µM; compound: OB1OCc2cc(F)ccc21 [AN‐2690]
12

Form entry - test system: C. elegans; read-out: inhibition at 110 µM; compound: CC1(C)C(C=C(Cl)Cl)C1C(=O)OCc1cccc(Oc2ccccc2)c1 (stereo not shown) [Permethrin]
7

Form entry - test system: C. elegans; read-out: inhibition at 110 µM; compound: O=C(O)[C@H]1O[C@@H](Oc2cc3oc(-c4ccccc4)cc(=O)c3c(O)c2O)[C@H](O)[C@@H](O)[C@@H]1O [Baicalin]
15

Form entry - test system: C. elegans; read-out: inhibition at 110 µM; compound: CCC(=O)O[C@@H]1CC(=O)O[C@H](C)C/C=C/C=C/[C@H](O)[C@H](C)C[C@H](CC=O)[C@H](O[C@@H]2O[C@H](C)[C@@H](O[C@H]3C[C@@](C)(O)[C@@H](OC(=O)CC)[C@H](C)O3)[C@H](N(C)C)[C@H]2O)[C@H]1OC [Midecamycin]
14

Form entry - test system: C. elegans; read-out: inhibition at 110 µM; compound: O=C1Nc2ccc(Cl)cc2[C@@](C#CC2CC2)(C(F)(F)F)O1 [Efavirenz]
29

Form entry - test system: C. elegans; read-out: inhibition at 110 µM; compound: C=C(C)[C@@H]1CCC2=CC(=O)C[C@@H](C)[C@]2(C)C1 [Nootkatone]
20

Form entry - test system: C. elegans; read-out: inhibition at 110 µM; compound: CC1=CC(=O)c2ccccc2C1=O [Menadione]
0

Form entry - test system: C. elegans; read-out: inhibition at 110 µM; compound: C=C1CCC[C@]2(C)CC[C@@H](C(C)(C)O)C[C@@H]12 [Beta-Eudesmol]
6

Form entry - test system: C. elegans; read-out: inhibition at 110 µM; compound: COc1ccc([C@@H]2CC(=O)c3c(O)cc(O)cc3O2)cc1O [Hesperetin]
5

Form entry - test system: C. elegans; read-out: inhibition at 110 µM; compound: CC1=CCC(C(C)C)=CC1 [γ-Terpinene]
31

Form entry - test system: C. elegans; read-out: inhibition at 110 µM; compound: CC1CCc2c(N3CCC(O)CC3)c(F)cc3c(=O)c(C(=O)O)cn1c23 (stereo not shown) [Nadifloxacin]
0

Form entry - test system: C. elegans; read-out: inhibition at 110 µM; compound: COC(=O)/C=C/C(=O)O [Monomethyl fumarate]
15
